Exercise: state measured pKd for each of the binders provided.
Target: T1, EsCas13d, nuclease-dead (Eubacterium siraeum, UniProt B0MS50, R295A;H300A;R849A;H854A)
T1 sequence: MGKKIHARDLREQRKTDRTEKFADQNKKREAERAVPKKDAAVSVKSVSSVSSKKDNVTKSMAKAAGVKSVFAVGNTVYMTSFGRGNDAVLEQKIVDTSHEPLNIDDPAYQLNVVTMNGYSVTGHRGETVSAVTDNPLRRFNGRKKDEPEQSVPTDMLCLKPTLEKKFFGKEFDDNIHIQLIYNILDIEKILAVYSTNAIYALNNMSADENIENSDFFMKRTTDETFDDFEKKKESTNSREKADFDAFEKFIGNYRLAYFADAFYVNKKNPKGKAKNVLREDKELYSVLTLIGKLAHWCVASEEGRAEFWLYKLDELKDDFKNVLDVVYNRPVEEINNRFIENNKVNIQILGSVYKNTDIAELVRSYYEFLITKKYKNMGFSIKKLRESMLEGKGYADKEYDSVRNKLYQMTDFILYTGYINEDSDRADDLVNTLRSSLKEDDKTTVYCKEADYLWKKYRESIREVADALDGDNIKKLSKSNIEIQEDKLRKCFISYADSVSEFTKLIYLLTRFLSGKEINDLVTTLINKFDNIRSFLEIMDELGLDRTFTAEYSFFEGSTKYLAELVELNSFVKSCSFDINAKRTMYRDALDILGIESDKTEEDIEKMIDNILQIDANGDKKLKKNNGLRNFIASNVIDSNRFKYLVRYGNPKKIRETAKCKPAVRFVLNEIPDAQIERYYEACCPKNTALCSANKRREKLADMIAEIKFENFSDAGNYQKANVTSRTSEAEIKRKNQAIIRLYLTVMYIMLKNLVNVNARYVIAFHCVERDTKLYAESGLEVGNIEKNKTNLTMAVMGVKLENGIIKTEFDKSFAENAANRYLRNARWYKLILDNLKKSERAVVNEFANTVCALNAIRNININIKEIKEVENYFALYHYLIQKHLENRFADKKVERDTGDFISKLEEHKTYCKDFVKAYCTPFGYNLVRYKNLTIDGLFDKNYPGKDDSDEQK
Assay: crRNA (strand 1, pre-loaded); Mg2+; 40 mM Tris-HCl pH 7.5, 150 mM NaCl, 6 mM MgCl2, 1 mM DTT, 0.1% Tween-20, 0.2 mg/ml BSA; 25 C; 10 min per concentration, then washed
Conditions: tags: His6-TwinStrep-SUMO cleaved; N-terminal SNAP kept (SNAP-Surface 488); label: 3' end held by stalled T7 RNA polymerase
One number for each entry, as −log10 of the molar value.

target 3 insU 3' of 14,insG 3' of 2 (mixed) RNA 1: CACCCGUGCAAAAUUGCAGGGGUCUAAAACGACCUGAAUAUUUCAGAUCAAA RNA 2: GGGAAUGGAUCCACAUCUACGAAUUCGUUUUUGAUCUGUAAAUAUUCAGGUGCUGCAGAUCGGAAGAGCACACGU :: 7.47

Parameter requested: pKd. Apply to each item below.
1. target 1 A9G,A16G (mixed) RNA 1: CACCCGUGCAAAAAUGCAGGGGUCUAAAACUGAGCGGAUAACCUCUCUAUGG RNA 2: GGGAAUGGAUCCACAUCUACGAAUUCGUACCAUAGGGAGGUUGUCCGCUCACCGAGAUCGGAAGAGCACACGU
2. target 3 insC 3' of 7,insC 3' of 4 (mixed) RNA 1: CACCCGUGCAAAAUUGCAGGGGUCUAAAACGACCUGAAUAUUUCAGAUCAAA RNA 2: GGGAAUGGAUCCACAUCUACGAAUUCGUUUUUGAUCUGAAAUAUUCCAGCGUCUGCAGAUCGGAAGAGCACACGU

OUTPUT:
[7.43, 7.13]
